target: EP2 Receptor (Homo sapiens, UniProt P43116); construct: host or cells: unnamed cultured cells, membrane fraction; assay: EP2 Ki (table under competitive [3H]PGE2 binding assay)
Sequence (P43116 whole entry): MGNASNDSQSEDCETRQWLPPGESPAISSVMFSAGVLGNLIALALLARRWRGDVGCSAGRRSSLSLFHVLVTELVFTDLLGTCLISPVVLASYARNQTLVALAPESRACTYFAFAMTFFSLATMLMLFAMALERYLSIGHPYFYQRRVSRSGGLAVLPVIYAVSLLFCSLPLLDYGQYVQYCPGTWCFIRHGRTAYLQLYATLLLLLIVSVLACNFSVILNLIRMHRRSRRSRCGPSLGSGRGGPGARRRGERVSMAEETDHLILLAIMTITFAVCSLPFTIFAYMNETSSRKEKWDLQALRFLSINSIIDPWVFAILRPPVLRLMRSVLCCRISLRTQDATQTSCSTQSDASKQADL
For each of the compounds below, state its Ki.
// note: answer is a bare numeric in µM

Identify measured Ki obtained with EP2 Receptor (Homo sapiens, UniProt P43116) for CCCCCC(O)/C=C/[C@H]1CCC(=O)N1CCc1ccc(C(=O)O)s1 (some centres unmarked) .
3.7

Identify measured Ki obtained with EP2 Receptor (Homo sapiens, UniProt P43116) for `Cc1cc(Cl)ccc1-c1cccc([C@H](O)CC[C@H]2CCC(=O)N2CCc2ccc(C(=O)O)cc2)c1` .
5.1

Identify measured Ki obtained with EP2 Receptor (Homo sapiens, UniProt P43116) for `CCCCC[C@H](O)/C=C/[C@H]1CCC(=O)N1CCc1ccc(C(=O)O)cc1` .
0.13
